Experiment: Percentage inhibition (100 uM) against protein tyrosine […]
Measured inhibition of individual entries
assay-readout: inhibition (%)

smiles_notation=N#Cc1c(N2CCc3ccccc3C2)cc(-c2ccc(Cl)cc2)c2c1CCCCCC2 numeric_value=24.2
smiles_notation=N#Cc1c(N2CCc3ccccc3C2)cc(-c2ccc(Br)cc2)oc1=O numeric_value=25.1
smiles_notation=N#Cc1c(N2CCc3ccccc3C2)cc(-c2cccc3ccccc23)c2c1-c1ccccc1SC2 numeric_value=41.9
smiles_notation=N#Cc1c(N2CCc3ccccc3C2)cc(-c2cccc3ccccc23)c2c1CCSC2 numeric_value=26.7
smiles_notation=N#Cc1c(N2CCc3ccccc3C2)cc(-c2cccc3ccccc23)c2c1-c1ccccc1CC2 numeric_value=51.8
smiles_notation=N#Cc1c(N2CCc3ccccc3C2)cc(-c2ccc(Cl)cc2)oc1=O numeric_value=18.2
smiles_notation=N#Cc1c(N2CCc3ccccc3C2)cc(-c2cccc3ccccc23)c2c1CCCC2 numeric_value=14.8
smiles_notation=N#Cc1c(-c2ccc(C(F)(F)F)cc2)cc(-c2ccc3ccc4cccc5ccc2c3c45)cc1N1CCCC1 numeric_value=12.5
smiles_notation=N#Cc1c(N2CCc3ccccc3C2)cc(-c2ccc(Cl)cc2)c2c1CCCCC2 numeric_value=42.8
smiles_notation=N#Cc1c(N2CCc3ccccc3C2)cc(-c2ccc(Cl)cc2)c2c1CCCC2 numeric_value=23.2
